Quick reference for apparent KD of MS2 coat protein among some sequences
Tested on: MS2 coat protein
Experiment: apparent KD of MS2 coat protein; designed switch direction (-1 OFF switch, 1 ON switch): -1; higher = weaker reporter binding
Details: input ligand: FMN 200 uM
recorded metric: apparent KD of MS2 coat protein (µM)

INSERT INTO assay_data (macromolecule_sequence, assayed_target, value_units, test_value) VALUES
  ('AGAGUGCUGCGAGGAUAUACAUGAGGAUCACCCAUGUUUUCCUGUGAGGCAUAGCCUCACAGGAUGUAGAAGGCGCAGUACUCA [Mat - Exclusion NG 2 - Mod of JL - D29] (Eterna round: R96, puzzle: Exclusion NG 2)', 'MS2 coat protein', 'µM', 0.0135),
  ('GCAGAAUGAGUUAGGAUAUGAUGAUUAUUCGGAAAUCAGAAGGAACUUGAGGAUCACCCAAGUAAAGAUAGGGU [JR_BMEx4_Sub063] (Eterna round: R97, puzzle: Brourd''s mod of Exclusion 4)', 'MS2 coat protein', 'µM', 0.361),
  ('AGAUUAAAAGUAAGGAUAUGCUUCCGGAAACGGAGGCAGAAGGUACAUGAGGAUCACCCAUGUUAAACUAAUUU [Explosion 5 - Jieux - Brourd''s mod of Exclusion 4] (Eterna round: R97, puzzle: Brourd''s mod of Exclusion 4)', 'MS2 coat protein', 'µM', 0.0212),
  ('AUCAGCUCGUCAGGAUAUACAUGAGGAUCACCCAUGUGAUCAAUAGCAGCUUCGGCUGCAUACAUGUAGAAGGGACGAGCUGAU [ENG2/6-B3] (Eterna round: R96, puzzle: Exclusion NG 2)', 'MS2 coat protein', 'µM', 0.05);

---

Tested on: MS2 coat protein
Assay: apparent KD of MS2 coat protein; designed switch direction (-1 OFF switch, 1 ON switch): -1; higher = weaker reporter binding
Settings: Eterna round: R98; input ligand: none
recorded metric: apparent KD of MS2 coat protein (µM)

INSERT INTO measurements (macromolecule_sequence, assayed_target, value_units, test_value) VALUES
  ('GAAUAAUAGAUCCAAUUUAUCUACAUGAGGAUCACCCAUGUGCAGGAUAUGCUAAAAUUUAAUAAGCAGAAGGGCAAGAACGGC [JR_ExcNG3_Sub016]', 'MS2 coat protein', 'µM', 0.104),
  ('GAGCAGGUAAAUAAACUCAAUUACAUGAGGAUCACCCAUGUAUAGGAUAUCGUCAGGAAUACUGACGAGAAGGAUACAUCCUGC [Exclusion NG 3/14-A2]', 'MS2 coat protein', 'µM', 0.0197),
  ('UAACAGCGAAGAUAAUAAUGAAUACAUGAGGAUCACCCAUGUAAGGAUAUCGUCAGGAAUACUGACGAGAAGGUACAUACGCUG [Exclusion NG 3/17-B2]', 'MS2 coat protein', 'µM', 0.0167),
  ('AUCUAUCGGUCAGGAUAUUCACAUGAGGAUCACCCAUGUGAGCCUCGGCCAAAGUGAACGCAUGUGAAGAAGGGACGGCAAAAC [Atceen]', 'MS2 coat protein', 'µM', 0.0278),
  ('GCGCGCGCGCGCGCGCGCGCGCACAUGAGGAUCACCCAUGUAUAGGAUAUCGAUUGUUGUUGAUUCGAGAAGGGUAGCGCGCGC [Exclusion NG3]', 'MS2 coat protein', 'µM', 0.0394);
